inhibition at 10 µM listing for selected compounds.
molecular target: HEK 293 GPR73 (prokineticin 1 receptor) expressing cells (Homo sapiens); construct: expressed in transfected cells; host or cells: HEK 293; assay: PK1 functional assay: screening for PK1 antagonists on the FLIPR (calcium fluorescence); format: cell-based; details: HEK293, compound at 10 μM, HEK 293 GPR73 cells, multiple values = repeat tests, read-out: Ca^2+ Mobilization % Inh @10 μM
Entry rule: numbers only, all in %.

The recorded inhibition at 10 µM for entry CNC(=N)NCCNc1nc(=O)n(Cc2ccc(F)cc2)c(=O)n1Cc1ccc(OC)cc1 [Cpd 156] equals 102

The recorded inhibition at 10 µM for entry COc1ccc(Cn2c(NCCNC(=N)N)nc(=O)n(Cc3ccccc3F)c2=O)cc1 [Cpd 16] equals 77

The recorded inhibition at 10 µM for entry COc1ccc(Cn2c(NCCCNC(=N)N)nc(=O)n(Cc3ccc(Cl)c(Cl)c3)c2=O)cc1 [Cpd 68] equals 84

The recorded inhibition at 10 µM for entry COc1ccc(Cn2c(=O)nc(NCCNC(=N)N)n(Cc3ccc(O)cc3)c2=O)cc1 [Cpd 143] equals 100

The recorded inhibition at 10 µM for entry COc1ccc(Cn2c(NCCNC(=N)N)nc(=O)n(Cc3ccc(OC)cc3)c2=O)cc1 [Cpd 31] equals 101

The recorded inhibition at 10 µM for entry COc1ccc(Cn2c(NCCNC(=N)NC(C)C)nc(=O)n(Cc3ccc(F)cc3)c2=O)cc1 [Cpd 153] equals 99

The recorded inhibition at 10 µM for entry COc1ccc(CCCn2c(=O)nc(NCCNC(=N)N)n(Cc3ccc(OC)cc3)c2=O)cc1 [Cpd 146] equals 87

The recorded inhibition at 10 µM for entry CCc1ccc(Cn2c(=O)nc(NCCNC(=N)N)n(Cc3ccc(OC)cc3)c2=O)cc1 [Cpd 46] equals 101

* * *

biological target: HEK 293 GPR73 (prokineticin 1 receptor) expressing cells (Homo sapiens); construct: expressed in transfected cells; host or cells: HEK 293; assay: PK1 functional assay: screening for PK1 antagonists on the FLIPR (calcium fluorescence); assay type: cell-based; conditions: HEK293, compound at 10 μM, HEK 293 GPR73 cells, multiple values = repeat tests, read-out: Ca^2+ Mobilization % Inh @10 μM
endpointName: inhibition at 10 µM (%)
Entry rule: numbers only, all in %.

The recorded inhibition at 10 µM for entry COc1ccc(CCn2c(NCCNC(=N)N)nc(=O)n(Cc3ccc(F)cc3)c2=O)cc1 equals 66

The recorded inhibition at 10 µM for entry CCNC(=N)NCCNc1nc(=O)n(Cc2ccc(F)cc2)c(=O)n1Cc1ccc(OC)cc1 equals 99

* * *

Ca^2+ Mobilization % Inh @10 μM listing for selected compounds.
molecular target: HEK 293 GPR73 (prokineticin 1 receptor) expressing cells (Homo sapiens, UniProt Q8TCW9); construct: expressed in transfected cells; host or cells: HEK 293; test: PK1 functional assay: screening for PK1 antagonists on the FLIPR (calcium fluorescence); type: cell-based; conditions: compound at 10 μM, HEK 293 GPR73 cells, multiple values = repeat tests, 10 µM
Sequence (Q8TCW9 whole entry): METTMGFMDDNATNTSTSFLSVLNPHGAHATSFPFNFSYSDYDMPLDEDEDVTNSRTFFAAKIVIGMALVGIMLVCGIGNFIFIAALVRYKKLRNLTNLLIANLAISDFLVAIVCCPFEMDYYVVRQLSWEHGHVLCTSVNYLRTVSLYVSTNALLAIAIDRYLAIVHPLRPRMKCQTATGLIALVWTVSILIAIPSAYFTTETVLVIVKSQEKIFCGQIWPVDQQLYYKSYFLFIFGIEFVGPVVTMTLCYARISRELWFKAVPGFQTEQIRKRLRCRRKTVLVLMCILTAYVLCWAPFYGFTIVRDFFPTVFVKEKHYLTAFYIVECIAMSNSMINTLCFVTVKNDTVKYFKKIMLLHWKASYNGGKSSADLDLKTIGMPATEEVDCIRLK
Entry rule: numbers only, all in %.

compound | Ca^2+ Mobilization % Inh @10 μM, %
COc1ccc(Cn2c(NCCNC(=N)NC(C)(C)C)nc(=O)n(Cc3ccc(F)cc3)c2=O)cc1 [Cpd 121] | 98

Entry CCCNC(=N)NCCNc1nc(=O)n(Cc2ccc(Cl)c(Cl)c2)c(=O)n1Cc1ccc(OC)cc1 [Cpd 54] : Ca^2+ Mobilization % Inh @10 μM on HEK 293 GPR73 (prokineticin 1 receptor) expressing cells (Homo sapiens, UniProt Q8TCW9) = 101

Entry COc1ccc(Cn2c(NCCNC(=N)Nc3ccccc3)nc(=O)n(Cc3ccc(Cl)c(Cl)c3)c2=O)cc1 [Cpd 71] : Ca^2+ Mobilization % Inh @10 μM on HEK 293 GPR73 (prokineticin 1 receptor) expressing cells (Homo sapiens, UniProt Q8TCW9) = 99

Entry CCCNC(=N)NCCNc1nc(=O)n(Cc2ccc(F)cc2)c(=O)n1Cc1ccc(OC)cc1 [Cpd 154] : Ca^2+ Mobilization % Inh @10 μM on HEK 293 GPR73 (prokineticin 1 receptor) expressing cells (Homo sapiens, UniProt Q8TCW9) = 98

Entry CCOc1ccc(Cn2c(NCCNC(=N)N)nc(=O)n(Cc3ccc(Cl)c(Cl)c3)c2=O)cc1 [Cpd 29] : Ca^2+ Mobilization % Inh @10 μM on HEK 293 GPR73 (prokineticin 1 receptor) expressing cells (Homo sapiens, UniProt Q8TCW9) = 102

Entry COc1ccc(Cn2c(NCCNC(=N)Nc3ncccn3)nc(=O)n(Cc3ccc(F)cc3)c2=O)cc1 [Cpd 135] : Ca^2+ Mobilization % Inh @10 μM on HEK 293 GPR73 (prokineticin 1 receptor) expressing cells (Homo sapiens, UniProt Q8TCW9) = 94

Entry COc1ccc(Cn2c(NCCNC(=N)N)nc(=O)n(Cc3ccc(OC)cc3)c2=O)cc1 [Cpd 31] : Ca^2+ Mobilization % Inh @10 μM on HEK 293 GPR73 (prokineticin 1 receptor) expressing cells (Homo sapiens, UniProt Q8TCW9) = 102

Values compiled from patent US20080045535A1.
